- Tested on: BV-173
- test: Cytotoxicity against human BV173 cells after 72 hrs by MTT assay
- Type: functional, cell-based
- recorded-conditions: BV-173, 72 h
property-label: IC50 (µM)
Express the result in µM but write the number alone.

compound	property-label	reading
COc1cc([C@@H]2c3cc4c(cc3[C@@H](O[C@@H]3O[C@@H]5CO[C@@H](C)O[C@H]5[C@H](O)[C@H]3O)[C@H]3COC(=O)[C@H]23)OCO4)cc(OC)c1O [ETOPOSIDE]	IC50	0.9

Ask | Please state recorded IC50 (tested on BV-173) of O=C(/C=C/c1ccccc1)c1ccc2[nH]c(=O)oc2c1
Reply | 18.4

Ask | Please state recorded IC50 (tested on BV-173) of O=C(/C=C/c1ccccc1)c1ccc2c(c1)oc(=O)n2CN1CCOCC1
Reply | 7.4

Ask | Please state recorded IC50 (tested on BV-173) of O=C(/C=C/c1ccccc1)c1ccc2c(c1)oc(=O)n2CN1CCSCC1
Reply | 7.9

Ask | Please state recorded IC50 (tested on BV-173) of COc1ccc(/C=C/C(=O)c2ccc3[nH]c(=O)oc3c2)cc1
Reply | 9.2

Ask | Please state recorded IC50 (tested on BV-173) of COc1ccc(/C=C/C(=O)c2ccc3c(c2)oc(=O)n3CN(C)C)cc1
Reply | 17.7

Ask | Please state recorded IC50 (tested on BV-173) of COc1ccccc1N1CCN(Cn2c(=O)oc3cc(C(=O)/C=C/c4ccccc4)ccc32)CC1
Reply | 9.2

Ask | Please state recorded IC50 (tested on BV-173) of O=C(/C=C/c1ccccc1)c1ccc2c(c1)oc(=O)n2CN1CCCCC1
Reply | 8.2

Ask | Please state recorded IC50 (tested on BV-173) of CN(C)Cn1c(=O)oc2cc(C(=O)/C=C/c3ccccc3)ccc21
Reply | 6.6

Ask | Please state recorded IC50 (tested on BV-173) of COc1ccc(/C=C/C(=O)c2ccc3c(c2)oc(=O)n3CN2CCOCC2)cc1
Reply | 4.7

###

- Test system: BV-173
- test: Cytotoxicity against human BV173 cells after 72 hrs by MTT assay
- Assay type: functional, cell-based
- recorded-conditions: BV-173, 72 h
property-label: pIC50
Remember, pIC50 is on a log scale: it is -log10 of the molar concentration.

Ask | Requested field: pIC50. Item: COc1ccc(/C=C/C(=O)c2ccc3c(c2)oc(=O)n3CN2CCCCC2)cc1
Reply | 4.82

###

- Tested on: BV-173
- test: Cytotoxicity against human BV173 cells after 72 hrs by MTT assay
- Format: functional, cell-based
- recorded-conditions: BV-173, 72 h
property-label: pIC50
Remember, pIC50 is on a log scale: it is -log10 of the molar concentration.

Below are worked cases with known answers.
In [3]: df
Out[3]:
                         compound_structure  reading
0  COc1ccc(/C=C/C(=O)c2ccc3c(c2)oc(=O)n3CN2CCN(c3ccccc3OC)CC2)cc1     5.27
1  COc1ccc(/C=C/C(=O)c2ccc3c(c2)oc(=O)n3CN2CCSCC2)cc1     5.21
2  O=C(/C=C/c1ccccc1)c1ccc2c(c1)oc(=O)n2CN1CCN(Cc2ccccc2)CC1     5.03

In the following, a different compound is considered.
Ask | Requested field: pIC50. Item: COc1ccc(/C=C/C(=O)c2ccc3c(c2)oc(=O)n3CN2CCN(Cc3ccccc3)CC2)cc1
Reply | 5.21
